B1: glmS ribozyme (parent)
chain: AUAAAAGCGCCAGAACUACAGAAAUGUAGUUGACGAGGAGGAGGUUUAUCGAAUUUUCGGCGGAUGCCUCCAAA

- Variants of: B1
- experimentalDetails: self-cleavage kobs at 160 uM GlcN6P; higher = faster cleavage; RNA array
- recordedConditions: with glucosamine-6-phosphate
Variants at the floor of the assay were thinned out.
Documented self-cleavage kobs at 160 uM GlcN6P across a set of variants

>>> measvalue("U46A A52U")
"< 1e-05 s⁻¹"
>>> measvalue("G60U U65A")
"< 1e-05 s⁻¹"
>>> measvalue("A33C C71U")
"< 1e-05 s⁻¹"

(Q) Return reported self-cleavage kobs at 160 uM GlcN6P; argument: A39U U45G
(A) 0.000471 s⁻¹

(Q) Return reported self-cleavage kobs at 160 uM GlcN6P; argument: A15G U49G G63U C67A
(A) < 1e-05 s⁻¹

(Q) Return reported self-cleavage kobs at 160 uM GlcN6P; argument: U55G C68U
(A) 0.00035 s⁻¹

(Q) Return reported self-cleavage kobs at 160 uM GlcN6P; argument: U46G G60U
(A) < 1e-05 s⁻¹

(Q) Return reported self-cleavage kobs at 160 uM GlcN6P; argument: C16A A42U
(A) < 1e-05 s⁻¹

(Q) Return reported self-cleavage kobs at 160 uM GlcN6P; argument: G60C G62C
(A) < 1e-05 s⁻¹

(Q) Return reported self-cleavage kobs at 160 uM GlcN6P; argument: A15G G51C
(A) < 1e-05 s⁻¹

(Q) Return reported self-cleavage kobs at 160 uM GlcN6P; argument: C68A C71A
(A) < 1e-05 s⁻¹
